target: AlexaFluor 647-conjugated human IgG (Jackson Immuno Research) (human); assay: flow cytometry, titration of AlexaFluor 647 human IgG on yeast-displayed PrG, pH 8.2
MEASURED_ENDPOINT: pKd
pKd field: float, defined as -log10 of concentration (mol/L).

Protein G EHHE C2 domain (PrG-EHHE; A24E, K28H, V29H, N35E), displayed on the yeast cell surface (designed binder, not shown: large carriers) TTYKLVINGKTLKGETTTEAVDAETAEHHFKQYAEDNGVDGEWTYDDATKTFTVTE
5.93

Next, consider the following binder.
Fill blank: measured pKd of the binder Protein G EHHD C2 domain (PrG-EHHD; A24E, K28H, V29H, N35D), displayed on the yeast cell surface (designed binder, not shown: large carriers) TTYKLVINGKTLKGETTTEAVDAETAEHHFKQYADDNGVDGEWTYDDATKTFTVTE is ____. 5.75
